Reference for the values: patent US20250361239A1

Target: GSPT1 (Homo sapiens, UniProt P15170+Q96SW2)
Construct: host or cells: HEK293
Sequence (P15170 whole entry): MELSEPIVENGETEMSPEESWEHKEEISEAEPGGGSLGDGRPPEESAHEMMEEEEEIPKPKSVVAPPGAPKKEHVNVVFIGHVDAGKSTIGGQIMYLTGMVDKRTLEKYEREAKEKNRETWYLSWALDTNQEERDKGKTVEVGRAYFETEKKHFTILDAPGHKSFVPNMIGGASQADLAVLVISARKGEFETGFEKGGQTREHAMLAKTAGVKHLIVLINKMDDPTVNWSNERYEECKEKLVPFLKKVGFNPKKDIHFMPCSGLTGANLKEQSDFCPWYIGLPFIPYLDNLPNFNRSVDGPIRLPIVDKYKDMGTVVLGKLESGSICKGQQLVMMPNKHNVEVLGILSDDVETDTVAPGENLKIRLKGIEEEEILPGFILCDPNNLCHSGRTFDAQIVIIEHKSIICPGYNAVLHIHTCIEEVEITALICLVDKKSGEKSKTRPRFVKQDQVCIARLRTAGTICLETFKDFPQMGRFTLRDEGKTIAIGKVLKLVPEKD
Sequence (Q96SW2 whole entry): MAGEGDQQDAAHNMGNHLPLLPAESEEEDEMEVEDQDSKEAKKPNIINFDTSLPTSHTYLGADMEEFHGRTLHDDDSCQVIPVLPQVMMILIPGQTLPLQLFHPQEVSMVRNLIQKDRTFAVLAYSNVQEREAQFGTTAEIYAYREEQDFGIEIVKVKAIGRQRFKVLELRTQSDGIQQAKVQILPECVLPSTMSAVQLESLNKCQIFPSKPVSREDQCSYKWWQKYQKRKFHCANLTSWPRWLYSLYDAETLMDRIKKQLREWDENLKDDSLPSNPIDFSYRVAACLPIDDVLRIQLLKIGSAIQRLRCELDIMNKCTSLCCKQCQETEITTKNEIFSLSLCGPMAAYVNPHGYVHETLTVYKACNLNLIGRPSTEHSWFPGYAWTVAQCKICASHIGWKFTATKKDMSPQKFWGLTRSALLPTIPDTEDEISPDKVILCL
Sequence (Q16531 whole entry partner): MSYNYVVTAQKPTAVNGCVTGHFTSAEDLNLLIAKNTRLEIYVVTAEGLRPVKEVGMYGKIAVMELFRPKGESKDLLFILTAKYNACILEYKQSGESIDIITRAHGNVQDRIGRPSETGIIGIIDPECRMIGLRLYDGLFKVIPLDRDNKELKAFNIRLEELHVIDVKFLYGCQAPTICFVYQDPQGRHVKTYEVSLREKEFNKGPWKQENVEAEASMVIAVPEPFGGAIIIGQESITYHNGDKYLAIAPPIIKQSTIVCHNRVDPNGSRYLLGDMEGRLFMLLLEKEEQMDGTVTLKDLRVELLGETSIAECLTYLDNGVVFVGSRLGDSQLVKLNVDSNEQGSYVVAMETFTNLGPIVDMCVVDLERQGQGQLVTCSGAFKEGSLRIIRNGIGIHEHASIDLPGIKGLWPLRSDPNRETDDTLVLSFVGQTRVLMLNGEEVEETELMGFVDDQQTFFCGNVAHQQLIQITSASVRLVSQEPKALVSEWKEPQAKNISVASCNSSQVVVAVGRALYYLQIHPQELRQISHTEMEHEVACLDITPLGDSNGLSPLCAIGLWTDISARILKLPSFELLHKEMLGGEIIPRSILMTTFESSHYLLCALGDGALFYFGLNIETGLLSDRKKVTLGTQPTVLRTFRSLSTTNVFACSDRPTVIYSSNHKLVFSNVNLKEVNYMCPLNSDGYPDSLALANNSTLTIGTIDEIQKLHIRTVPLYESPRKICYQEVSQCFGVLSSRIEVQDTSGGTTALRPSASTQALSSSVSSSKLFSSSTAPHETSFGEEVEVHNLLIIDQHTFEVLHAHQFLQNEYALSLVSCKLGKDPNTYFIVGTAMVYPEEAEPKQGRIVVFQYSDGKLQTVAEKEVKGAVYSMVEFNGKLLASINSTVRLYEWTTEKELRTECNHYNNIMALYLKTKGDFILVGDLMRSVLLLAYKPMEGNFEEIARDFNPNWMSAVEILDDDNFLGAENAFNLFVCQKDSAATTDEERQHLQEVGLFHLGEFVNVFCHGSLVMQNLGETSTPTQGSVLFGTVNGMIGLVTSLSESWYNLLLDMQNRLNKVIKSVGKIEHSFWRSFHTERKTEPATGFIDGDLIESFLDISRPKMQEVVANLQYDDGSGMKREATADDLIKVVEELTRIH
Test: Degradation of GSPT1 by the compounds (HiBiT signal in GSPT1/HEK293 hibit cells)
Format: cell-based
Conditions: 6 h incubation, Nano Glo HiBiT Lytic Detection
MEASURE: DC50

Would you please look over these solved cases?
# COMPOUND, DC50
data = [
    ("Cn1c2cc(N)ccc2nc1[C@H]1CC[C@H](NC(=O)c2cc(CNc3cccc4c3C(=O)N(C3CCC(=O)NC3=O)C4=O)ccn2)CC1 (stereo partly drawn) [Example 130]", "< 100 nM"),
    ("Cn1c2ncccc2nc1[C@H]1CC[C@H](NC(=O)c2cc(CNc3cccc4c3C(=O)N(C3CCC(=O)NC3=O)C4=O)ccn2)CC1 (stereo partly drawn)", "< 100 nM"),
]

Data request: Item under review: CN(C(=O)c1cc(CNc2cccc3c2C(=O)N(C2CCC(=O)NC2=O)C3=O)ccn1)[C@H]1CC[C@H](c2nc3cccnc3s2)CC1 (stereo partly drawn) . Reported DC50?
Data returned: < 100 nM
